conditions: [M-H]-; instrument: DT; single field, calibrated with Agilent tune mix (Agilent)
measured.property: collision cross section (N2) (Å²)

| compound | measured |
| --- | --- |
| CCCC[C@H](N)C(=O)O | 129.02 |
| Nc1ncnc2c1ncn2[C@@H]1O[C@H](COP(=O)(O)OS(=O)(=O)O)[C@@H](OP(=O)(O)O)[C@H]1O [3'-Phosphoadenosine 5'-phosphosulfate] | 192.76 |
| O=C(O)CNC(=O)c1ccccc1 | 139.72 |
| CNC[C@H](O)c1ccc(O)c(O)c1 [Epinephrine] | 137.87 |
| O=c1nc[nH]c2c1ncn2[C@@H]1O[C@H](COP(=O)(O)OP(=O)(O)OP(=O)(O)O)[C@@H](O)[C@H]1O [Inosine triphosphate] | 187.3 |
| NC(=NCCCC(N)C(=O)O)NO (configuration not stated) [N-(omega)-Hydroxyarginine] | 138.2 |
| O=C1CC(=O)NC(=O)N1 | 112.69 |

* * *

details: [M-H]-; instrument: DT; single field, calibrated with Agilent tune mix (Agilent)
measured.property: collision cross section (N2) (Å²)

| molecule | measured.property | measured |
| --- | --- | --- |
| CC(C)C(=O)NCC(=O)O [Isobutyrylglycine] | collision cross section (N2) | 132.07 |
| OC[C@H](O)[C@@H](O)[C@H](O)[C@@H](O)CO [L-Iditol] | collision cross section (N2) | 129.61 |
| CC(C)CC(=O)SCCNC(=O)CCNC(=O)[C@H](O)C(C)(C)COP(=O)(O)OP(=O)(O)OC[C@H]1O[C@@H](n2cnc3c(N)ncnc32)[C@H](O)[C@@H]1OP(=O)(O)O [3-Methylbutanoyl-CoA] | collision cross section (N2) | 255.72 |

P. NC(CCCC(N)C(=O)O)C(=O)O (stereo unspecified) [Diaminopimelic acid]
Q. C[C@H](CCC(=O)NCCS(=O)(=O)O)[C@H]1CC[C@H]2[C@@H]3CC[C@@H]4C[C@H](O)CC[C@]4(C)[C@H]3C[C@H](O)[C@]12C [Taurodeoxycholic acid]
INPUT: Hey, which is lower on measured collision cross section (N2), P or Q ? Provide the label of your selected option as the answer.
OUTPUT: P
(P: 134.28 Å², Q: 204.37 Å²)

* * *

settings: [M+H]+; instrument: TW; calibrated with polyalanine and drug standards
measured.property: collision cross section (N2) (Å²)

| compound | unit.string | collision cross section (N2) |
| --- | --- | --- |
| O=C(/C=C/C=C/c1ccc2c(c1)OCO2)N1CCCCC1 | Å² | 171.4 |
| c1cc2c(cc1[C@H]1OC[C@H]3[C@@H]1CO[C@H]3c1ccc3c(c1)OCO3)OCO2 [ASARININ (-)] | Å² | 171 |
| COc1ccc(-c2oc3cc(OC)c(OC)c(OC)c3c(=O)c2OC)cc1OC | Å² | 191.2 |
| CN(C(=O)C(Cl)Cl)c1ccc(OC(=O)c2ccco2)cc1 [DILOXANIDE FUROATE] | Å² | 171.7 |
| CC1=CC2C(CC1=O)C(C)=CCC2C(C)C (stereo not given) | Å² | 138.5 |

* * *

settings: [M+Na]+; instrument: DT; single field, calibrated with Agilent tune mix (Agilent)
measured.property: collision cross section (N2) (Å²)

| compound | unit.string | collision cross section (N2) |
| --- | --- | --- |
| Cc1cn([C@H]2C[C@H](O)[C@@H](CO)O2)c(=O)[nH]c1=O | Å² | 161 |
| CC(=O)N[C@@H](Cc1ccccc1)C(=O)O | Å² | 149.8 |
| O=c1ccn([C@@H]2O[C@H](COP(=O)(O)O)[C@@H](O)[C@H]2O)c(=O)[nH]1 [Uridine 5'-monophosphate] | Å² | 171.8 |
| O=C([O-])[C@H](O)[C@@H](O)[C@H](O)[C@H](O)CO [D-gluconate] | Å² | 145.8 |
| C[C@H](CCC(=O)NCCS(=O)(=O)O)[C@H]1CC[C@H]2[C@@H]3[C@H](O)C[C@@H]4C[C@H](O)CC[C@]4(C)[C@H]3CC[C@]12C [Taurochenodeoxycholate] | Å² | 207.4 |
| CC(=O)OP(=O)(O)O [Acetyl phosphate] | Å² | 142.7 |
| CNc1ncnc2c1ncn2[C@@H]1O[C@H](CO)[C@@H](O)[C@H]1O | Å² | 170.4 |
| CC(=O)N[C@@H](CCC(N)=O)C(=O)O | Å² | 144.4 |
| O=P(O)(O)OC[C@H]1O[C@@](O)(COP(=O)(O)O)[C@@H](O)[C@@H]1O [Fructose 1,6-bisphosphate] | Å² | 168.2 |
| O=P(O)(O)OC[C@H]1OC(O)[C@H](O)[C@@H](O)[C@@H]1O (some centres not stated) [Glucose 6-phosphate] | Å² | 158.1 |
| O=c1ccn([C@H]2C[C@H](O)[C@@H](COP(=O)(O)O)O2)c(=O)[nH]1 [Deoxyuridine monophosphate] | Å² | 167.5 |
| OC[C@H](O)[C@@H](O)[C@H](O)[C@@H](O)CO | Å² | 143 |
| CC(=O)N[C@@H](CC(=O)O)C(=O)N[C@@H](CCC(=O)O)C(=O)O [N-Acetylaspartylglutamate (NAAG)] | Å² | 166.3 |
| O=c1[nH]c(=O)c2ncn([C@@H]3O[C@H](CO)[C@@H](O)[C@H]3O)c2[nH]1 | Å² | 172.8 |
| OC[C@H]1O[C@H](OC[C@H]2O[C@H](OC[C@H]3O[C@H](O[C@]4(CO)O[C@H](CO)[C@@H](O)[C@@H]4O)[C@H](O)[C@@H](O)[C@@H]3O)[C@H](O)[C@@H](O)[C@H]2O)[C@H](O)[C@@H](O)[C@H]1O | Å² | 234.1 |
| C[C@H](CCC(=O)NCC(=O)O)[C@H]1CC[C@H]2[C@@H]3[C@H](O)C[C@@H]4C[C@H](O)CC[C@]4(C)[C@H]3C[C@H](O)[C@]12C | Å² | 202 |
| CCCCC/C=C/C=C1/C(=O)C=C[C@@H]1C/C=C\CCCC(=O)O | Å² | 192.5 |
| O=P(O)(O)OC1O[C@H](CO)[C@@H](O)[C@H](O)[C@H]1O (stereo partly drawn) [a-D-Galactose 1-phosphate] | Å² | 157.5 |
| CCCCCCCCCCCCCCCC(=O)O | Å² | 195 |
| COc1ccc2[nH]cc(C[C@H](N)C(=O)O)c2c1 | Å² | 156.2 |
| OC[C@@H](O)[C@@H](O)[C@H](O)[C@@H](O)CO | Å² | 142.5 |
| C[C@H](CCC(=O)O)[C@H]1CC[C@H]2[C@@H]3[C@H](O)C[C@@H]4C[C@H](O)CC[C@]4(C)[C@H]3C[C@H](O)[C@]12C | Å² | 197.3 |

* * *

details: [M+H]+; instrument: TW; calibrated with polyalanine and drug standards
measured.property: collision cross section (N2) (Å²)

| compound | collision cross section (N2) / Å² |
| --- | --- |
| CN1C(C(=O)Nc2ccccn2)=C(O)c2ccccc2S1(=O)=O [PIROXICAM] | 170.7 |
| CC(C)=CCC[C@]1(C)C=Cc2c(O)c3c(c(CC=C(C)C)c2O1)O[C@]12C(=C[C@@H]4C[C@H]1C(C)(C)O[C@@]2(C/C=C(/C)C(=O)O)C4=O)C3=O [GAMBOGIC ACID] | 239 |
| Cc1c(NC(=O)c2cccnc2)c(=O)n(-c2ccccc2)n1C [NIFENAZONE] | 172.5 |
| COc1ccccc1OCC(O)CN1CCN(CC(=O)Nc2c(C)cccc2C)CC1 (stereo not given) [RANOLAZINE] | 205.2 |
| CN1CC(=O)N=C1N [CREATININE] | 120.2 |
| COc1ccc2c(c1)c(CC(=O)O)c(C)n2C(=O)c1ccc(Cl)cc1 [INDOMETHACIN] | 179 |
| CC1(C)O[C@@H]2C[C@H]3[C@@H]4CCC5=CC(=O)CC[C@]5(C)[C@@]4(F)[C@@H](O)C[C@]3(C)[C@]2(C(=O)CCl)O1 [HALCINONIDE] | 200.9 |
| COC(=O)Nc1nc2ccc(C(=O)c3ccccc3)cc2[nH]1 [MEBENDAZOLE] | 171.2 |
| CCOC(=O)c1ccc(O)cc1 [ETHYL PARABEN] | 125.4 |
| CC1=CC2C(C(C)C)CCC(C)(O)C2CC1 (stereo not given) [CADIN-4-EN-10-OL] | 145.9 |

* * *

details: [M+H]+; instrument: TW; calibrated with polyalanine and drug standards
measured.property: collision cross section (N2) (Å²)

Recorded collision cross section (N2), per entry:
| compound | unit.string | measured |
| --- | --- | --- |
| NS(=O)(=O)c1cc(C(=O)O)c(NCc2ccco2)cc1Cl [FUROSEMIDE] | Å² | 169.3 |
| C[C@]12CC[C@H]3[C@@H](CC[C@]4(O)C[C@@H](O)CC[C@]34C=O)[C@@]1(O)CC[C@@H]2C1=CC(=O)OC1 [STROPHANTHIDIN] | Å² | 196.7 |

a. CNC[C@H](O)[C@@H](O)[C@H](O)[C@H](O)CO [MEGLUMINE]
b. O=C1CCc2ccc(OCCCCN3CCN(c4cccc(Cl)c4Cl)CC3)cc2N1 [ARIPIPRAZOLE]
INPUT: Between the two listed entries a and b , which has its collision cross section (N2) at the higher number? Provide the label of your selected option as the answer.
OUTPUT: b

The values you see were collected from the C3SDB collision cross section collection.
